molecular target: glyceraldehyde-3-phosphate dehydrogenase (Leishmania mexicana); experiment: Inhibitory concentration against Leishmania mexicana glyceraldehyde-3-phosphate dehydrogenase (GAPDH)
measured_parameter: IC50 (µM)
Please respond with the number in µM and leave the unit unwritten.

Which IC50 reading was recorded for the compound "COc1cccc(C(=O)N[C@@H]2[C@H](O)[C@@H](CO)O[C@H]2n2cnc3c(NCc4cccc5ccccc45)ncnc32)c1" ? 6

* * *

assay: Inhibitory concentration against Trypanosoma brucei glyceraldehyde-3-phosphate dehydrogenase (GAPDH)
measured_parameter: pIC50
Notebook: values listed as pIC50 are -log10 of the concentration (mol/L).

smiles_record: COc1cccc(C(=O)N[C@@H]2[C@H](O)[C@@H](COP(=O)(O)O)O[C@H]2n2cnc3c(NCc4cccc5ccccc45)ncnc32)c1
result_value: 5.15

Kindly review the next compound as well.
Which pIC50 reading was recorded for the compound "COc1cccc(C(=O)N[C@@H]2[C@H](O)[C@@H](CO)O[C@H]2n2cnc3c(NCc4cccc5ccccc45)ncnc32)c1" ? 4.60

* * *

Each entry below lists one item and its recorded EC50 value.
system: Trypanosoma brucei; assay: Effective dose required against Trypanosoma brucei in bloodstream; format: functional; conditions: read-out: ED50 (the source's name)
Please respond with the number in µM and leave the unit unwritten.

smiles_record: COc1cccc(C(=O)N[C@@H]2[C@H](O)[C@@H](CO)O[C@H]2n2cnc3c(NCc4cccc5ccccc45)ncnc32)c1
EC50 (µM): 30

smiles_record: N=C(N)c1ccc(OCCCCCOc2ccc(C(=N)N)cc2)cc1
EC50 (µM): 0.008

Request body: readout EC50, system Trypanosoma brucei, query "COc1cccc(C(=O)N[C@@H]2[C@H](O)[C@@H](COP(=O)(O)O)O[C@H]2n2cnc3c(NCc4cccc5ccccc45)ncnc32)c1" . Return the value. 32

* * *

experiment: Inhibitory concentration against rabbit muscle glyceraldehyde-3-phosphate dehydrogenase (GAPDH); set-up: species or system Oryctolagus cuniculus
pIC50: −log10 of the molar value.
Each entry below lists one item and its recorded pIC50 value.

Solved cases below.
molecule: COc1cccc(C(=O)N[C@@H]2[C@H](O)[C@@H](CO)O[C@H]2n2cnc3c(NCc4cccc5ccccc45)ncnc32)c1
result_value: < 4.30

molecule: NC(=O)c1ccc[n+]([C@@H]2O[C@H](COP(=O)([O-])O)[C@@H](O)[C@H]2O)c1 [BETANMN]
result_value: < 3.30

Kindly review the next molecule as well.
Which pIC50 reading was recorded for the molecule "COc1cccc(C(=O)N[C@@H]2[C@H](O)[C@@H](COP(=O)(O)O)O[C@H]2n2cnc3c(NCc4cccc5ccccc45)ncnc32)c1" ? < 4.00

* * *

biological target: glyceraldehyde-3-phosphate dehydrogenase (Leishmania mexicana); experiment: Inhibitory concentration against Leishmania mexicana glyceraldehyde-3-phosphate dehydrogenase (GAPDH)
measured_parameter: IC50 (nM)
Please respond with the number in nM and leave the unit unwritten.

Which IC50 reading was recorded for the compound "COc1cccc(C(=O)N[C@@H]2[C@H](O)[C@@H](COP(=O)(O)O)O[C@H]2n2cnc3c(NCc4cccc5ccccc45)ncnc32)c1" ? 2000
